Quick list: melting point per entry.

Example entries begin here.
compound=Cc1cnc2c(Br)c(NC3=NCCN3)ccc2n1 parameter_measured="melting point" assay_value="260 °C"
compound="O=C(Cn1cncc(NC(=O)OCc2ccccc2)c1=O)NC(Cc1ccccc1)C(=O)C(F)(F)F (centres undefined)" parameter_measured="melting point" assay_value="132 to 134 °C"

Please turn your attention to the following entry.
[Q] Provide measured melting point value, entry: CCCSc1ncc(CC(NC(C)=O)C(=O)O)n1Cc1ccccc1Cl (centres undefined)
[A] 182 to 184 °C

---

parameter.measured: melting point

Example entries begin here.
compound=Cc1cc2c(cc1Sc1ccc(C=O)cc1)C(C)(C)CCC2(C)C assay_value="98 to 99 °C"
compound="Cc1nc(-c2ccc(CCC3(O)CN4CCC3CC4)cc2)no1 (centres undefined)" assay_value="165 to 167 °C"
compound=CCOC(=O)c1cnc2c(cnn2CC)c1NN=C(C)CC#N assay_value="190 to 191 °C"
compound=CCNC(=Nc1ccccc1N1CCOCC1)NCC assay_value="101 to 102 °C"
compound=CCOC(=O)c1nccc(NC=O)n1 assay_value="205 to 206 °C"
compound="CN1CC[C@H]2Cc3[nH][nH]c(=O)c3C[C@@H]2C1 (relative stereo)" assay_value="245 to 247 °C"
compound=c1ccc(-c2nnc3n2-c2ccccc2Cn2cccc2-3)nc1 assay_value="255 to 257 °C"
compound=CCCCCCCCCCCCCCOC(=O)n1cc(-c2ccccc2)nc1O assay_value="166 to 171 °C"
compound=CNC(=O)c1c[nH]c2ccc(C(=O)c3c(C)c(OC)c4ccccn34)cc2c1=O assay_value="324 °C"
compound=CCOC(=O)c1ncsc1-c1cccc(I)c1 assay_value="77 to 78 °C"

[Q] Provide measured melting point value, entry: `CON(O)C(=O)c1ccccc1`
[A] 58 to 60 °C

[Q] Provide measured melting point value, entry: Cc1ccc(C2c3c(C)c(NC(=O)OC(C)(C)C)c(C)c(C)c3OC2(C)C)cc1 (centres undefined)
[A] 124 to 125 °C

[Q] Provide measured melting point value, entry: `Cc1c(/C=C/C(=O)c2nn(C)c3ccccc23)ncn1C(c1ccccc1)(c1ccccc1)c1ccccc1`
[A] 223 to 225 °C

[Q] Provide measured melting point value, entry: `COc1cc(-c2[nH]c3ccc(OCc4ccccc4)cc3c2C)ccc1OCc1ccccc1`
[A] 155 to 158 °C

---

parameter.measured: melting point

[Q] Provide measured melting point value, entry: CCC1(CC(=O)O)OCCc2c1[nH]c1c(C(C)C)cccc21 (configuration not stated)
[A] 158 to 159 °C

[Q] Provide measured melting point value, entry: `CSc1nc(N)nc2c3nc(C)cc(C)c3nn12`
[A] 306 to 307 °C

[Q] Provide measured melting point value, entry: `CCc1nc2c(N)nc3ccccc3c2n1CC#Cc1ccc([N+](=O)[O-])cc1`
[A] 190 to 206 °C

[Q] Provide measured melting point value, entry: `CCOC(=O)c1ccc(-c2ccc(OCCO)c(-c3ccc(N(CC)CC)c(C(C)(C)C)c3)c2)cc1`
[A] 127 °C

[Q] Provide measured melting point value, entry: `CCCc1[nH]nc2c1C(=O)c1c(NC(N)=O)cccc1-2`
[A] 187 to 189 °C

---

parameter.measured: melting point

[Q] Provide measured melting point value, entry: `COc1ccccc1N1CCN(CCCOC(=O)Cc2csc(NC(=O)c3ccc(F)cc3)n2)CC1`
[A] 100 °C

[Q] Provide measured melting point value, entry: `CS(=O)(=O)c1ccc(-c2c(C(=O)O)c3cccccc-3c2-c2ccccc2)cc1`
[A] 168 to 169 °C

[Q] Provide measured melting point value, entry: `N#Cc1ccc(OCc2ccc(CCc3ccncc3)cc2)cc1`
[A] 139 to 140 °C

[Q] Provide measured melting point value, entry: `NCCCn1cnc(-c2ccc(F)cc2)c1-c1ccncc1`
[A] 81 to 82 °C

[Q] Provide measured melting point value, entry: `CC1=CC(C)(C)N2CCCc3c(O)ccc1c32`
[A] 125 to 126 °C

[Q] Provide measured melting point value, entry: `CO[C@@H](C(=O)N[C@H]1CC[C@@H](OC(=O)C=Cc2ccccc2)CNC1=O)[C@H](O)[C@@H](O)[C@H](O)/C=C/C(C)(C)C`
[A] 83 to 85 °C

[Q] Provide measured melting point value, entry: CC1CC(=NNc2ccccc2)c2ncc(C(=O)O)c(=O)n2C1 (configuration not stated)
[A] 255 to 256 °C

[Q] Provide measured melting point value, entry: `c1ccc(Nc2nc(-c3ccncc3)nc3ccccc23)cc1`
[A] 270 to 274 °C

[Q] Provide measured melting point value, entry: COc1ccccc1-c1ccc(C(=O)N2Cc3ccc(C(=O)NC(CO)c4ccccc4)n3Cc3ccccc32)cc1 (configuration not stated)
[A] 195 to 196 °C

[Q] Provide measured melting point value, entry: `CC12CC3(C)CC(Br)(C1)CC(Br)(C2)C3`
[A] 115 to 116 °C

[Q] Provide measured melting point value, entry: `C[C@H]1OC(=O)[C@@H]2C=C3CCCC[C@H]3[C@H](O)[C@H]12`
[A] 156 to 157 °C

[Q] Provide measured melting point value, entry: `CCC(C)(C)c1ccc(OCCCCNC(=O)c2[nH]c3ccc(OC)cc3c2N)c(C(C)(C)CC)c1`
[A] 145 to 146 °C

Hey, just so you know, these numbers are from a melting point compilation (Tetko et al.; mined from patent text by program, amines drawn as free bases though some values may be those of a salt).
